All figures here come from patent EP3936128A1.

- targetUnderTest: FNT of P. malariae (PmFNT) (Plasmodium malariae)
- Sequence (A0A1C3KYI2 whole entry): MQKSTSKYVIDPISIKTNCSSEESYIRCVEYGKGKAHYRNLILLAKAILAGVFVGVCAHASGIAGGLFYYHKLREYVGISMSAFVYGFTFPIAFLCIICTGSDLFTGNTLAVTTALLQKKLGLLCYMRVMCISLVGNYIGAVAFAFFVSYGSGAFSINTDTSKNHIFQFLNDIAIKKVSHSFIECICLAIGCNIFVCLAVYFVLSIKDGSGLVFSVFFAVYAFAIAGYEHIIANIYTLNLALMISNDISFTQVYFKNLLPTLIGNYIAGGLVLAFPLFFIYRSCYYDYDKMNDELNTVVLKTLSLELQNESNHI
- assay: Inhibition of the FNT of P. malariae
valueKind: IC50 (nM)
Supply the numeric figure in nM, leaving out any unit text.

>  <compound>
COc1ccc(C(=O)C=C(O)C(F)(F)C(F)(F)F)cc1 [compound [2], reference compound]

>  <targetUnderTest>
FNT of P. malariae (PmFNT) (Plasmodium malariae)

>  <endpointUnit>
nM

>  <IC50>
391

$$$$

Here's the next entry for you.
QUERY: What does the record list as IC50 for O=C(C=C(O)C(F)(F)C(F)(F)F)c1cccnc1 [compound [16]] ?
RESULT: 214

====

- targetUnderTest: PfFNT wildtype (Plasmodium falciparum, UniProt O77389)
- Sequence (O77389 whole entry): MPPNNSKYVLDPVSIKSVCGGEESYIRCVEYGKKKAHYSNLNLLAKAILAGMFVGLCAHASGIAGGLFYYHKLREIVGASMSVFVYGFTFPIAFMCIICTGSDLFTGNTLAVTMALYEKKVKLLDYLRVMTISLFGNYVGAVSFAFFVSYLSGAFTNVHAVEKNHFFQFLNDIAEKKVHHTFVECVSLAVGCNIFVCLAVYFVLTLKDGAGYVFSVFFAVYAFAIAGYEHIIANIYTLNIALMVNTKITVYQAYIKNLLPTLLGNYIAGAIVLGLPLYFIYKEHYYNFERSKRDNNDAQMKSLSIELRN
- assay: Inhibition of radiolabelled L-lactate uptake in yeast expressing wild-type PfFNT
- Procedure: Plasmodium falciparum were kept in culture in 5% 0+ erythrocytes in RPMI 1640 medium containing 0,5% Albumax at 37 °C. […] Medium containing test compounds was exchanged every 24 h. In order to test for the propensity of parasites to develop resistance to a given substance, 3D7 parasites were grown in the presence of 3 x IC50 of a test for 30 days. Thereafter the drug was removed by exchanging the medium, and the day recorded when parasites resurfaced in the culture. […]
valueKind: IC50 (nM)
Report the figure in nM without appending any unit label.

In the examples that follow, each entry is paired with its recorded IC50.
>  <molecule>
O=C(C=C(O)C(F)(F)C(F)(F)F)c1cc[nH]c1 [compound [5], reference compound]

>  <endpointUnit>
nM

>  <IC50>
200

$$$$
>  <molecule>
Cn1ccc(C(=O)C=C(O)C(F)(F)C(F)(F)F)c1 [compound [6], reference compound]

>  <endpointUnit>
nM

>  <IC50>
130

$$$$
>  <molecule>
CCCCC(F)(F)C(O)=CC(=O)c1cccnc1 [compound [22]]

>  <endpointUnit>
nM

>  <IC50>
360

$$$$

QUERY: // query IC50 value for entry O=C(C=C(O)C(F)(F)C(F)(F)F)c1cccnc1 [compound [16]]
RESULT: 110

QUERY: Given the entry CC(C)(O)CC(=O)C=C(O)C(F)(F)C(F)(F)F [compound [3], reference compound] , report its measured IC50.
RESULT: 1100
